- Target under test: T1, B-cat-Halo (beta-catenin HaloTag NanoBRET construct expressed in HEK293 cells) (UniProt P35222 1-781)
- T1 sequence (looked up): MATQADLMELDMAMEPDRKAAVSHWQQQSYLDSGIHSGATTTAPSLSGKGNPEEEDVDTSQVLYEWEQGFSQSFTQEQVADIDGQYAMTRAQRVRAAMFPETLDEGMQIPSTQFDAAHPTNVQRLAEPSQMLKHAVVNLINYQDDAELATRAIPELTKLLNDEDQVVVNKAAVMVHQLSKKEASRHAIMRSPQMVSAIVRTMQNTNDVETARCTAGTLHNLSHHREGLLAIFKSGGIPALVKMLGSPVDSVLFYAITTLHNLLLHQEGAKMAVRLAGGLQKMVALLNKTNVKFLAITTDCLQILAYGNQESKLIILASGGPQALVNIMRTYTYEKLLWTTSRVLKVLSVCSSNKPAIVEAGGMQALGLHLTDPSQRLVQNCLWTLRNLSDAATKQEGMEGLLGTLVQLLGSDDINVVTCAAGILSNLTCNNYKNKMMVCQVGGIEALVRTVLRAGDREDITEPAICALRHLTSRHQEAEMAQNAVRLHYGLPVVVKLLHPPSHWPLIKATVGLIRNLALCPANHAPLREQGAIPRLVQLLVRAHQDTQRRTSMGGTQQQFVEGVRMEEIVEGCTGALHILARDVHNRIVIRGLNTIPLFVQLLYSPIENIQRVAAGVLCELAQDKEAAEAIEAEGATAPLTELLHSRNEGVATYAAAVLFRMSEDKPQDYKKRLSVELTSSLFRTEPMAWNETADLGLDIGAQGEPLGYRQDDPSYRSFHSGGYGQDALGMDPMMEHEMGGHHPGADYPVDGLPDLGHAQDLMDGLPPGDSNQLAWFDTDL
- Test summary: cell-based or functional assay
Starred links: 1 amine or outer side, 2 acyl side, 3 side chain; linkers in the order of their positions; H or OH if unused. Positions of bridges follow the written chain, without caps; N, C: chain ends. Non-standard residues stand in square brackets, D forms with d. Primed or numbered codes have the meaning given here. *: point of attachment. PyrS2″ = (S)-3-amino-1-((pent-4-en-1-yloxy)carbonyl)pyrrolidine-3-carboxylic acid (stapling residue), C=CCCCOC(=O)N1CC[C@@](N[*:1])(C(=O)[*:2])C1; PyrS2 = (S)-3-amino-1-((pent-4-en-1-yloxy)carbonyl)pyrrolidine-3-carboxylic acid, C=CCCCOC(=O)N1CC[C@@](N[*:1])(C(=O)[*:2])C1; 4MePipBz = 4-((4-methylpiperazin-1-yl)methyl)benzoyl on Lys side chain, CN1CCN(Cc2ccc(C(=O)*)cc2)CC1; 35CF3PhPr = 3-(3,5-bis(trifluoromethyl)phenyl)propanoyl, O=C(CCc1cc(C(F)(F)F)cc(C(F)(F)F)c1)*; B5(3) = 2,2-bis(4-pentenyl)glycine (stitching residue), C=CCCCC(CCCC=C)(N[*:1])C(=O)[*:2]; MeMorphBz = 4-(morpholinomethyl)benzoyl on Lys side chain, O=C(c1ccc(CN2CCOCC2)cc1)*; Bta = N[C@@H](Cc1csc2ccccc12)C(=O)O; αAllylPro = C=CC[C@@]1(C(=O)O)CCCN1; tBuAla = CC(C)(C)C[C@H](N)C(=O)O; 3Thi = N[C@@H](Cc1ccsc1)C(=O)O
Would you kindly list NanoBRET Abs IC50 for each of these binders?
Answers are plain numbers, in µM.

Please review the entries below; each comes with its answer.
>  <Binder>
Ac-[αAllylPro]D[tBuAla][B5(3)]DDAAFN[PyrS2″][3Thi][Bta]QK(4MePipBz)-NH2 (staple 1-4, 4-11) [I-908]

>  <NanoBRET Abs IC50, µM>
26

$$$$
>  <Binder>
Ac-[αAllylPro]D[tBuAla][B5(3)]DDAAFN[PyrS2″][3Thi][Bta]QK(MeMorphBz)-NH2 (staple 1-4, 4-11) [I-909]

>  <NanoBRET Abs IC50, µM>
28.4

$$$$

Attention now turns to another entry.
Fill blank: measured NanoBRET Abs IC50 of the binder Ac-[αAllylPro]D[tBuAla][B5(3)]DDAAFN[PyrS2][3Thi][Bta]QK(35CF3PhPr)-NH2 (staple 1-4, 4-11) [I-902] is ____.
21.2

Recorded values, source patent US20240116985A1.
